- Measured On: Protein deacetylase HDAC6 (Homo sapiens)
- Sequence (whole entry): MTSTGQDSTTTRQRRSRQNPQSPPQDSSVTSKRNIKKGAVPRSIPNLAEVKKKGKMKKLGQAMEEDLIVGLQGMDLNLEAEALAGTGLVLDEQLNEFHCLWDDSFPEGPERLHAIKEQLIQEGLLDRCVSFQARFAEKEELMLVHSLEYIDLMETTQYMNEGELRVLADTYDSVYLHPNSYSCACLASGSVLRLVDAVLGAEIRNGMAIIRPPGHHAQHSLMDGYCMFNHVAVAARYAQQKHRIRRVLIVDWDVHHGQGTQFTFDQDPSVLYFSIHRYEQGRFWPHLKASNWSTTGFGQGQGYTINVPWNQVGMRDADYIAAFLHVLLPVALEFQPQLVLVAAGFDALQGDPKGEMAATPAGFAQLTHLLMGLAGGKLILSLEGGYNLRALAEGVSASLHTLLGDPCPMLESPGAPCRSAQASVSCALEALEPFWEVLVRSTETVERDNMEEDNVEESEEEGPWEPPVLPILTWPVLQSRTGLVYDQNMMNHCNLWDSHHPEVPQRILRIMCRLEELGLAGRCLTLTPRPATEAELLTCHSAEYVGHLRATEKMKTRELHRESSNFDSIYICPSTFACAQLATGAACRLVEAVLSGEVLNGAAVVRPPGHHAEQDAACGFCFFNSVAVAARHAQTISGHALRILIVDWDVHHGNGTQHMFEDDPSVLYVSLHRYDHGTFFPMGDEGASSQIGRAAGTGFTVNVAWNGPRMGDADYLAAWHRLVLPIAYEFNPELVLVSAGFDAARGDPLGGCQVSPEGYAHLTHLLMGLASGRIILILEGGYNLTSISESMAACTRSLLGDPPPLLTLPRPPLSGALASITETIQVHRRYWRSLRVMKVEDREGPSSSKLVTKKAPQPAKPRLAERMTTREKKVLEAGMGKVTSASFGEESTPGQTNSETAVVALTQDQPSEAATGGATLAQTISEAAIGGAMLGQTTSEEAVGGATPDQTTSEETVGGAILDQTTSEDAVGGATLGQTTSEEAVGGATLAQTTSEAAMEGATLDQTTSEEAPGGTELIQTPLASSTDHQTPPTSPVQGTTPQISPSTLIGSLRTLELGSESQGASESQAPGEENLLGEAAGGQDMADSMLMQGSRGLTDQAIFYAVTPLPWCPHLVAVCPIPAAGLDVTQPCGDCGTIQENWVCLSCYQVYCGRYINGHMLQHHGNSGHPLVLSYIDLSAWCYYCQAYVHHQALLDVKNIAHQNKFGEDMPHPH
- Test Conditions: at 10 µM
Hit rate of the full screen: of about 5,600 compounds, about 390 (7%) showed an effect of 50% or more. This excerpt belongs to a sample that is enriched for strong results.
Quick list: inhibition per entry.

# Compound, Unit Abbreviation, inhibition
records = [
    ("O=C(O)C(O)Cc1ccc(O)c(O)c1 (stereo not drawn)", "%", 15.4),
    ("CCCCCCOc1ccccc1C(N)=O", "%", 93.3),
    ("COC1=C2C[C@@H](C)C[C@H](OC)[C@H](O)[C@@H](C)/C=C(\\C)[C@H](OC(N)=O)[C@@H](OC)/C=C\\C=C(/C)C(=O)NC(=CC1=O)C2=O", "%", 19.3),
    ("CC1=C(C(=O)Nc2cc3cn[nH]c3cc2F)C(c2ccc(C(F)(F)F)cc2)CC(=O)N1 (stereo not drawn)", "%", 24.4),
    ("c1coc(-c2nnc3sc(C4CCCCC4)nn23)c1", "%", -6.78),
    ("CS(=O)(=O)c1ccc([C@@H](CC2CCCC2)C(=O)Nc2nccs2)cc1", "%", -9.75),
    ("COc1ccc(/C=C\\CCCCOc2ccc(C(=O)c3cccc(C(=O)O)c3)cc2CCC(=O)O)cc1", "%", -0.99),
    ("Cc1nn(C)c2c1C(c1ccc(C(F)(F)F)cc1)C(C#N)=C(N)O2 (stereo not drawn)", "%", 27.3),
    ("CN1CCN(c2ccc3nc(-c4c(N)c5c(F)cccc5[nH]c4=O)[nH]c3c2)CC1", "%", 86.8),
    ("Cc1cccc(/C=C/c2ccccc2)n1", "%", 100),
    ("CSc1ccc2c(c1)C(N1CCN(C)CC1)Cc1ccccc1S2 (stereo not drawn)", "%", 62.7),
    ("O=C(c1ccc(/C=C/c2n[nH]c3ccccc23)cc1)N1CCNCC1", "%", 94.8),
    ("CCCCC/N=c1/ccn(Cc2ccccc2)c2ccccc12", "%", -3.26),
    ("CC(C)Cc1ccc(C(C)C(=O)NO)cc1 (stereo not drawn)", "%", 49.7),
    ("Nc1ccc(C(=O)Oc2ccccc2)c(O)c1", "%", 108),
    ("O=C(Nc1cnn2ccc(N3CCC[C@@H]3c3cc(F)ccc3F)nc12)N1CC[C@H](O)C1", "%", 28.9),
    ("CSc1ccc2c(c1)N(CCC1CCCCN1C)c1ccccc1S2 (stereo not drawn)", "%", 21.9),
    ("CN1CCN(C(=O)c2nc3ccc(Cl)cc3[nH]2)CC1", "%", 16.2),
]
